Experimental System: T1, ECF30_35
T1 chain: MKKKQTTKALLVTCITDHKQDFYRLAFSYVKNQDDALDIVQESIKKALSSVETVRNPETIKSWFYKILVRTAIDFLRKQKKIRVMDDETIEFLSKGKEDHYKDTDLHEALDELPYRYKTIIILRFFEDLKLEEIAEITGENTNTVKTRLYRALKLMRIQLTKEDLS
Below, each entry is listed alongside its reported fold repression.
Assay Readout: fold repression

binder="AS22_1147 (protein) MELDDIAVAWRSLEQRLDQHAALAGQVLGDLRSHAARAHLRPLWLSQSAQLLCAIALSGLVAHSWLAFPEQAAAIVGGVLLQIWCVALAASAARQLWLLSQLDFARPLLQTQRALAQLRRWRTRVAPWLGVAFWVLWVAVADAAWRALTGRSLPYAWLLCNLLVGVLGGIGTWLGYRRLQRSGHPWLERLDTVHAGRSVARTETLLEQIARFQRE" value_observed=2.04
binder="AS25_1643_cl43 (protein) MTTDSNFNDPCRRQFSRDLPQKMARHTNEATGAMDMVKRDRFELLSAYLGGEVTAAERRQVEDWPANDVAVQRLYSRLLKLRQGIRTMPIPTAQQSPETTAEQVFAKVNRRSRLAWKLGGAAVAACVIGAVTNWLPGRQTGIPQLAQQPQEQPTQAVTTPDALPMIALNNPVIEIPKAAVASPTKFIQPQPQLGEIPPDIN" value_observed=0.929
